// data source = patent US20230357189A1

System: Escherichia coli R477-100
method summary: Antibacterial activity, MIC by double-microdilution method
Assay type: cell-based
test settings: Table 3; Escherichia coli R477-100; DTT 2 mM
Listing of recorded Gram-negative MIC, DTT 2 mM by entry.
test readout: Gram-negative MIC, DTT 2 mM (µg/mL)

compound_smiles=N=C(N)NCCN1CCNCCNCCN(CCCCc2ccc(CN3CCN(c4cc5c(cc4F)c(=O)c(C(=O)O)cn5C4CC4)CC3)cc2)CC1 unit_symbol=µg/mL numeric_result=3
compound_smiles=N=C(N)NCCN1CCNCCNCCN(CCCc2ccc(CN3CCN(c4cc5c(cc4F)c(=O)c(C(=O)O)cn5C4CC4)CC3)cc2)CC1 unit_symbol=µg/mL numeric_result=6
compound_smiles=NCCN1CCNCCNCCN(CCCCc2ccc(CN3CCN(c4cc5c(cc4F)c(=O)c(C(=O)O)cn5C4CC4)CC3)cc2)CC1 unit_symbol=µg/mL numeric_result=6
compound_smiles=N=C(N)NCCN1CCNCCNCCN(CCc2ccc(CN3CCN(c4cc5c(cc4F)c(=O)c(C(=O)O)cn5C4CC4)CC3)cc2)CC1 unit_symbol=µg/mL numeric_result=12
compound_smiles=N=C(N)NCCN1CCNCCNCCN(Cc2ccc(CN3CCN(c4cc5c(cc4F)c(=O)c(C(=O)O)cn5C4CC4)CC3)cc2)CC1 unit_symbol=µg/mL numeric_result=12
compound_smiles=NCCN1CCNCCNCCN(Cc2ccc(CN3CCN(c4cc5c(cc4F)c(=O)c(C(=O)[O-])cn5C4CC4)CC3)cc2)CC1.[Cu+2] unit_symbol=µg/mL numeric_result=6
compound_smiles=NCCN1CCNCCNCCN(Cc2ccc(CN3CCN(c4cc5c(cc4F)c(=O)c(C(=O)O)cn5C4CC4)CC3)cc2)CC1 unit_symbol=µg/mL numeric_result=12

---

Listing of recorded MIC by entry.
Test system: Escherichia coli R477-100
method summary: Antibacterial activity, MIC by double-microdilution method
Assay type: cell-based
test settings: R477100; Table 2; Escherichia coli R477-100; without DTT; read-out: Gram-negative MIC a
test readout: MIC (µg/mL)

molecule="O=C(O)c1cn(C2CC2)c2cc(N3CCN(Cc4ccc(CCCN5CCNCCNCCNCC5)cc4)CC3)c(F)cc2c1=O [Compound 6]" test_readout=MIC numeric_result=3
molecule="O=C(O)c1cn(C2CC2)c2cc(N3CCN(CCCCCCN4CCNCCNCCNCC4)CC3)c(F)cc2c1=O [Compound 1]" test_readout=MIC numeric_result=12
molecule="O=C(O)c1cn(C2CC2)c2cc(N3CCN(CCCCCCCN4CCNCCNCCNCC4)CC3)c(F)cc2c1=O [Compound 2]" test_readout=MIC numeric_result=12
molecule="O=C(O)c1cn(C2CC2)c2cc(N3CCN(Cc4ccc(CCN5CCNCCNCCNCC5)cc4)CC3)c(F)cc2c1=O [Compound 5]" test_readout=MIC numeric_result=6

---

System: Escherichia coli 25922
method summary: Antibacterial activity, MIC by double-microdilution method
Type: cell-based
test settings: Table 2; Escherichia coli 25922
Listing of recorded Gram-negative MIC b by entry.
test readout: Gram-negative MIC b

compound="[Cl][Cu][Cl] [CuCl2, reference compound]" study_target="Escherichia coli 25922" test_readout="Gram-negative MIC b" result=">384 µg/mL"
compound=O.O=C(O)c1cn(C2CC2)c2cc(N3CCN(Cc4ccc(CCN5CCNCCNCCNCC5)cc4)CC3)c(F)cc2c1=O.[Cu+2] study_target="Escherichia coli 25922" test_readout="Gram-negative MIC b" result="6 µg/mL"
compound=O.O=C(O)c1cn(C2CC2)c2cc(N3CCN(CCCCCCN4CCNCCNCCNCC4)CC3)c(F)cc2c1=O.[Co+3].[OH-] study_target="Escherichia coli 25922" test_readout="Gram-negative MIC b" result="12 µg/mL"
compound=N=C(N)NCCN1CCNCCNCCN(CCCc2ccc(CN3CCN(c4cc5c(cc4F)c(=O)c(C(=O)O)cn5C4CC4)CC3)cc2)CC1 study_target="Escherichia coli 25922" test_readout="Gram-negative MIC b" result="12 µg/mL"
compound=N=C(N)NCCN1CCNCCNCCN(Cc2ccc(CN3CCN(c4cc5c(cc4F)c(=O)c(C(=O)O)cn5C4CC4)CC3)cc2)CC1 study_target="Escherichia coli 25922" test_readout="Gram-negative MIC b" result="12 µg/mL"
compound=O.O=C(O)c1cn(C2CC2)c2cc(N3CCN(CCCCCCCN4CCNCCNCCNCC4)CC3)c(F)cc2c1=O.[Co+3].[OH-] study_target="Escherichia coli 25922" test_readout="Gram-negative MIC b" result="6 µg/mL"
compound=NCCN1CCNCCNCCN(Cc2ccc(CN3CCN(c4cc5c(cc4F)c(=O)c(C(=O)[O-])cn5C4CC4)CC3)cc2)CC1.[Cu+2] study_target="Escherichia coli 25922" test_readout="Gram-negative MIC b" result="24 µg/mL"
